Biological target: T1, H-2Kd (mouse)
T1 chain 1: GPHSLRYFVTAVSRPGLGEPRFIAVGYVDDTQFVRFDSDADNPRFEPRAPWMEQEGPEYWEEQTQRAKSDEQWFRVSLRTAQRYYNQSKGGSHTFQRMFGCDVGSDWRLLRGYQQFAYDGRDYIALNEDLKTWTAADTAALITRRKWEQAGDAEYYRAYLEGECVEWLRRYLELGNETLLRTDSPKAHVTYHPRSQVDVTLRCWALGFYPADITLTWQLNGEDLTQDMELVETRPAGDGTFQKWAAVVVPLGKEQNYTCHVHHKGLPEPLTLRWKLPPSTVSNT
T1 chain 2: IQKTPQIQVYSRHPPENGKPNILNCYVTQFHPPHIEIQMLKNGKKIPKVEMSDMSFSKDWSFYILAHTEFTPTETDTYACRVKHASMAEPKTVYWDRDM
Assay: competition
Settings: modification not given
Output 1 (yes) for records whose IC50 is lower than 4 nM, 0 (no) for records at or above 4 nM.

Some solved entries appear below for comparison.
binder	classification
AYAPAKAAI [1114.01]	1 (yes)
SFFSSWQII [F078.07]	0 (no)
SFYRNLLWL [Flu HA 142]	0 (no)
SYLTLAKHTI [F078.18]	0 (no)
RYLENGKETL [1074.15]	0 (no)

Now, please, on to the next binder.
Exercise: Lab note: confirm whether the reported IC50 for this binder is below 4 nM, equality not counting. binder: AYAGAKAAI [1114.07]
Key: 0 (no)
